- Tested on: Escherichia coli
- protocol.notes: In vitro antibacterial evaluation: minimum inhibitory concentration (MIC), broth dilution method
- Type: cell-based
- experimental.setup: strain GC 4559
endpoint.name: MIC Escherichia coli (GC 4559) (µg/mL)
Give bare numbers, in µg/mL.

// solved cases for MIC Escherichia coli (GC 4559) follow
CCCCCCN=C1NCC(C(O)C2NC(=O)C(C(O)C3CNC(=N)N3)NC(=O)C(Cc3ccc(OC4OC(CO)C(OC5OC6COC7(OC6C(O)C5O)C5CC6CC(C5)CC7C6)C(O)C4O)cc3)NC(=O)C(C(C)c3ccccc3)NC(=O)CNC(=O)C(CO)NC2=O)N1C1OC(CO)C(O)C(O)C1O (centres unmarked): 64
CSc1ccc(C2OCC3OC(OC4C(CO)OC(Oc5ccc(CC6NC(=O)C(C(C)c7ccccc7)NC(=O)CNC(=O)C(CO)NC(=O)C(C(O)C7CNC(=N)N7C7OC(CO)C(O)C(O)C7O)NC(=O)C(C(O)C7CNC(=N)N7)NC6=O)cc5)C(O)C4O)C(O)C(O)C3O2)cc1[N+](=O)[O-] (centres unmarked): 16

Go through the items and report each one's MIC Escherichia coli (GC 4559).
1. COc1ccc(Oc2cccc(C3OCC4OC(OC5C(CO)OC(Oc6ccc(CC7NC(=O)C(C(C)c8ccccc8)NC(=O)CNC(=O)C(CO)NC(=O)C(C(O)C8CNC(=N)N8C8OC(CO)C(O)C(O)C8O)NC(=O)C(C(O)C8CNC(=N)N8)NC7=O)cc6)C(O)C5O)C(O)C(O)C4O3)c2)cc1 (centres unmarked)
2. CC(c1ccccc1)C1NC(=O)CNC(=O)C(CO)NC(=O)C(C(O)C2CNC(=N)N2C2OC(CO)C(O)C(O)C2O)NC(=O)C(C(O)C2CNC(=N)N2)NC(=O)C(Cc2ccc(OC3OC(CO)C(OC4OC5COC(c6cccc(Cl)c6)OC5C(O)C4O)C(O)C3O)cc2)NC1=O (centres unmarked)
3. COc1cc(OC)cc(C2OCC3OC(OC4C(CO)OC(Oc5ccc(CC6NC(=O)C(C(C)c7ccccc7)NC(=O)CNC(=O)C(CO)NC(=O)C(C(O)C7CNC(=N)N7C7OC(CO)C(O)C(O)C7O)NC(=O)C(C(O)C7CNC(=N)N7)NC6=O)cc5)C(O)C4O)C(O)C(O)C3O2)c1 (centres unmarked)

64
64
32
